# credit: patent EP3319959B1

Reported IC50 values are given for each entry in this list.
system: recombinant human HDACs; assay: HDAC enzymatic assay (LabChip capillary electrophoresis); assay type: biochemical; details: 5 nM HDAC enzyme, 1 uM substrate, 5 hours pre-incubation, 17 hours reaction at 25°C; isoform not given

Examples with their reported IC50 follow.
Query (compound): Nc1ccc(-c2ccco2)nc1NC(=O)N1CC2CN(CCF)CC2C1 (centres unmarked) ; field requested: IC50
> 5 µM

Please answer likewise for Nc1ccc(-c2ccco2)nc1NC(=O)N1CC2CN(C3COC3)CC2C1 (centres unmarked)
> 5 µM

Please answer likewise for Cn1ncc2c1CN(C(=O)Nc1nc(-c3ccc(F)cc3)ccc1N)C2
0.5 to 5 µM

Please answer likewise for COC1CCN(C(=O)Nc2nc(-c3ccc(F)cc3)ccc2N)C1 (centres unmarked)
0.5 to 5 µM

Please answer likewise for Nc1ccc(-c2cccnc2)nc1NC(=O)N1Cc2nccnc2C1
0.5 to 5 µM

Others:
Query (compound): CC(=O)N1CCC(C(=O)Nc2nc(-c3ccccc3)ccc2N)CC1 ; field requested: IC50
> 5 µM

Please answer likewise for CN1CCC(COC(=O)Nc2nc(-c3cccnc3)ccc2N)CC1
> 5 µM

###

Reported IC50 values are given for each entry in this list.
System: recombinant human HDACs
Experiment: HDAC enzymatic assay (LabChip capillary electrophoresis)
Type: biochemical
Conditions: 5 nM HDAC enzyme, 1 uM substrate, 5 hours pre-incubation, 17 hours reaction at 25°C; isoform not given
Description: All recombinant human HDACs were purchased from BPS Bioscience. The substrate, FAM-TSRHK(AC)KL-CONH, was synthesized at NanoSyn. […] Change in the relative fluorescence intensity of the substrate and product peaks reflects enzyme activity. Reaction progress was determined as the product to sum ratio (PSR): P/(S+P), where P is the peak height of the product peptide and S is the peak height of the substrate peptide. […] IC50 values were calculated using a 4 Parameter Logistic Model.

Query (molecule): Nc1ccc(-c2ccc(F)cc2)nc1NC(=O)N1Cc2ccc(CN3CCC(F)(F)C3)cc2C1 [Compound 386] ; field requested: IC50
100 to 500 nM

// moving on: another record for IC50
Query (molecule): Nc1cn(-c2ccccc2)nc1NC(=O)N1CCN(C2COC2)CC1 [Compound 356] ; field requested: IC50
> 5000 nM

###

Reported pIC50 values are given for each entry in this list.
test system: recombinant human HDACs; test: HDAC enzymatic assay (LabChip capillary electrophoresis); format: biochemical; details: 5 nM HDAC enzyme, 1 uM substrate, 5 hours pre-incubation, 17 hours reaction at 25°C; isoform not given
pIC50: −log10 of the molar value.

Examples with their reported pIC50 follow.
Query (compound): Cn1cc2c(n1)CN(C(=O)Nc1nc(-c3ccc(F)cc3)ccc1N)C2 ; field requested: pIC50
6.30 to 7.00

Please answer likewise for Nc1ccc(-c2ccco2)nc1NC(=O)C1CN(c2ccccn2)C1
< 5.30

Please answer likewise for COc1cc2c(cn1)CN(C(=O)Nc1nc(-c3ccc(F)cc3)ccc1N)C2
6.30 to 7.00

Please answer likewise for CN(C)Cc1cnc2c(c1)CN(C(=O)Nc1nc(-c3cccnc3)ccc1N)C2
6.30 to 7.00

Please answer likewise for Nc1ccc(-c2ccccc2)nc1NC(=O)N1CC2CN(C3COC3)CC2C1 (centres unmarked)
< 5.30

Please answer likewise for Nc1ccc(-c2cccnc2)nc1NC(=O)C1CCN(Cc2ccccc2F)CC1
< 5.30

Please answer likewise for Nc1ccc(-c2cccs2)nc1NC(=O)N1Cc2ccc(CN3CCCC3)cc2C1
6.30 to 7.00

Please answer likewise for Cn1cc(CN2CCCC3(CCN(C(=O)Nc4nn(-c5ccc(F)cc5)cc4N)C3)C2)cn1 (centres unmarked)
< 5.30

Others:
Query (compound): Nc1ccc(-c2ccccc2)nc1NC(=O)N1CC2CC(NC3COC3)CC2C1 (centres unmarked) ; field requested: pIC50
5.30 to 6.30

Please answer likewise for CN1CCC(c2cc3c(cn2)CN(C(=O)Nc2nc(-c4ccc(F)cc4)ccc2N)C3)CC1
6.30 to 7.00

Please answer likewise for CN1CCN(c2ccc3c(c2)CN(C(=O)Nc2nn(-c4ccccc4)cc2N)C3)CC1
5.30 to 6.30

Please answer likewise for Nc1ccc(-c2cccnc2)nc1NC(=O)N1CCC2(CCCNC2)C1 (centres unmarked)
< 5.30

Please answer likewise for CN1CC(CN2C[C@@H]3[C@H](C2)[C@H]3C(=O)Nc2nc(-c3ccc(F)cc3)ccc2N)C1
< 5.30
